# experimental-details: Murine P388 model in BDF1 mice
# Type: in vivo
# experimental-parameters: female, mouse, in vivo; single bolus intravenous injection, BDF1 mice bearing P388 tumors; read-out: maximum tolerated dose
Structures can show the parent of a compound that is named as a salt.
property-name: MTD at 14 days (mg/kg)

{"molecule": "CCC1=C[C@@H]2CN(C1)Cc1c([nH]c3ccccc13)[C@@](C(=O)OC)(c1cc3c(cc1OC)N(C)[C@H]1[C@@](O)(C(=O)OC)[C@H](OC(C)=O)[C@]4(CC)C=CCN5CC[C@]31[C@@H]54)C2", "recorded-value": 40}
{"molecule": "CC[C@]1(O)C[C@H]2CN(CCc3c([nH]c4ccccc34)[C@@](C(=O)OC)(c3cc4c(cc3OC)N(C=O)[C@H]3[C@@](O)(C(=O)OC)[C@H](OC(C)=O)[C@]5(CC)C=CCN6CC[C@]43[C@@H]65)C2)C1 [Vincristine, Sulfate of 22-oxovincaleukoblastine]", "recorded-value": 3}

Just for reference, patent US20030162803A1 is where these values come from.
